Data credit: ChEMBL document CHEMBL3507680

experiment: Human HepG2 cell viability assay in 384 well format; format: toxicity, cell-based; design: dose 125 nL, time 70.5 hour; concentration not given beside the values; details: HepG2 cells, read-out: Inhibition
property-measured: cytotoxicity at 70.5 h

compound	cytotoxicity at 70.5 h
CCN(CC)c1nc(C)cc(C(=O)Nc2cccc(C(N)=O)c2)n1	-7.03%
Cc1ccsc1CNCCCOc1ccccn1	1.65%
Cc1noc([C@H]2C[C@H]3OCC[C@H]3N(S(C)(=O)=O)C2)n1	3.17%
CC(C)[C@H]1CN(Cc2c[nH]cn2)C[C@@H]1NC(=O)CC1CCC1	-6.54%
COc1ccc(CC(=O)N(C)Cc2nnc3ccccn23)cc1	-17.4%

Entry Cc1nccn1-c1cncc(C2CCCN2Cc2ccccc2)n1 (centres undefined) ; cytotoxicity at 70.5 h = 14.2%

response.value for `Cc1cccc(OCCC(=O)N2CCCN(C(N)=O)CC2)c1C` (field: cytotoxicity at 70.5 h) = 15.3%

Value of cytotoxicity at 70.5 h reported for the compound `Cc1sc(C(=O)NS(C)(=O)=O)cc1-c1ccc(F)cc1` is -4.18%

The reported cytotoxicity at 70.5 h of the compound `Cn1cnnc1SCc1cc2c(cc1Br)OCO2` was -1.06%

cytotoxicity at 70.5 h reported for this compound CCc1nc(C2CCCN2CC(=O)NCCc2ccsc2)no1 (centres undefined) : 0.0583%

Measured cytotoxicity at 70.5 h, `CN(Cc1cccs1)C(=O)c1ccc(=O)n(C)c1` : -5.37%

Looking up `O=C(Cc1ccc(-n2cnnn2)cc1)Nc1nncs1` , I found its cytotoxicity at 70.5 h recorded as -3.13%

Measured cytotoxicity at 70.5 h, `O=C(NN1CCCc2ccccc21)c1c[nH]c(=O)[nH]1` : -7.94%

The recorded cytotoxicity at 70.5 h for `Cc1cnn(CCNCc2nc(-c3ccccc3Cl)no2)c1` is 31.1%

// COCc1ccccc1C(=O)NCC(O)c1ccccc1F (centres undefined) : cytotoxicity at 70.5 h value = -2.57%

Given item `CSc1nnc(CC2CCN(C(=O)COc3cccnc3)CC2)n1C` , the value recorded as its cytotoxicity at 70.5 h is -8.54%

Per the record, O=C(NC1CC1)c1ccnc(N2CCOC(c3ccc(Cl)c(Cl)c3)C2)c1 (centres undefined) has cytotoxicity at 70.5 h of 9.19%

cytotoxicity at 70.5 h reported for this compound CC1(c2ncc(CN(CC(=O)O)Cc3ccccc3)cn2)CCCCO1 (centres undefined) : -7.96%

Note to self: cytotoxicity at 70.5 h recorded for `COCc1nc2cc(NCc3csc(C)n3)ccc2o1` was 3.55%

Field cytotoxicity at 70.5 h (entry NC(=O)C1CN(Cc2c[nH]cn2)CCN(C2CCOCC2)C1 (centres undefined) ) reads -9.19%

Entry under test: COc1ccccc1CC1CCCN(C(=O)c2cc[nH]n2)C1 (centres undefined) . Its cytotoxicity at 70.5 h was -6.57%

The measured cytotoxicity at 70.5 h associated with `O=C(c1ccncc1F)N1Cc2nc(COCC3CC3)oc2C1` reads -15.8%
